target: hDHFR (Homo sapiens, UniProt P00374); format: biochemical; settings: Table 16; pIC50 = -log10 IC50; at least three replicates; read-out: hDHFR pIC50-DHFR primary assay (converted)
Sequence (P00374 whole entry): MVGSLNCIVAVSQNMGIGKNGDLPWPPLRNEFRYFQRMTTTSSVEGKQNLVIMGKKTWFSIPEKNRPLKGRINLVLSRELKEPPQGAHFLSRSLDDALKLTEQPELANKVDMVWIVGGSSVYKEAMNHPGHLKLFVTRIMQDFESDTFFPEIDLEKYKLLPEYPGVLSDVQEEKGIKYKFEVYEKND
# IC50 per record follows
Output spec: scalar in nM, unitless text.

Solved cases (2 shown):
{"Compound": "CCc1nc(N)nc(N)c1N1CCN(c2ccc(F)cn2)CC1 [Compound 44]", "Reading unit": "nM", "Value reported": 295}
{"Compound": "CCCc1nc(N)nc(N)c1N1CCC(c2ccccc2)CC1 [Compound 51]", "Reading unit": "nM", "Value reported": 2450}

Please list IC50 recorded for the compound COc1ncc(-c2cccc(N3CC=C(c4cnc(N)nc4N)CC3)c2)cn1 [Compound 182]
77.6

Please list IC50 recorded for the compound CCc1nc(N)nc(N)c1N1CCN(c2ccccn2)CC1 [Compound 34]
1020

Please list IC50 recorded for the compound Nc1ncc(N2CCN(c3ccc(C4CCOCC4)cc3)CC2)c(N)n1 [Compound 173]
1620

====

target: hDHFR (Homo sapiens); format: biochemical; conditions: Table 16; pIC50 = -log10 IC50; at least three replicates; read-out: hDHFR pIC50-DHFR primary assay (converted)
# IC50 per record follows
Output spec: scalar in nM, unitless text.

{"Molecule": "N#Cc1cccc(-c2cccc(N3CCN(c4cnc(N)nc4N)CC3)c2)c1", "Readout": "IC50", "Reading unit": "nM", "Value reported": 302}
{"Molecule": "CCc1nc(N)nc(N)c1N1CCN(c2ccc(C)cc2)CC1", "Readout": "IC50", "Reading unit": "nM", "Value reported": 1740}
{"Molecule": "Nc1ncc(N2CCN(c3ccnc(C(F)(F)F)c3)CC2)c(N)n1", "Readout": "IC50", "Reading unit": "nM", "Value reported": 81.3}
{"Molecule": "COc1ncc(-c2cccc(N3CCC(c4cnc(N)nc4N)CC3)c2)cn1", "Readout": "IC50", "Reading unit": "nM", "Value reported": 468}

Please list IC50 recorded for the molecule COc1ncc(-c2cc(F)cc(N3CCN(c4cnc(N)nc4N)CC3)c2)cn1
138

Please list IC50 recorded for the molecule Nc1ncc(N2CCN(c3cccc(-c4cccc(F)c4)c3)CC2)c(N)n1
1070

Please list IC50 recorded for the molecule COc1ncc(-c2ccc(F)c(N3CCN(c4cnc(N)nc4N)CC3)c2)cn1
562

Please list IC50 recorded for the molecule CCCc1nc(N)nc(N)c1N1CCN(c2ccccc2)CC1
9120

Please list IC50 recorded for the molecule Nc1ncc(N2CCN(c3cccc(-c4cnc(N5CCC5)nc4)c3)CC2)c(N)n1
955

Please list IC50 recorded for the molecule Nc1ncc(N2CCN(c3cccc(Br)c3)CC2)c(N)n1
437

Please list IC50 recorded for the molecule Nc1ncc(N2CCN(c3cccc(-c4cnc(Cl)nc4)c3)CC2)c(N)n1
1320

Please list IC50 recorded for the molecule Nc1ncc(C2=CCN(c3cnc(C(F)(F)F)nc3)CC2)c(N)n1
3310

Please list IC50 recorded for the molecule COc1ncc(-c2cccc(N3CCN(c4cnc(N)nc4N)CC3)c2F)cn1
2340

Please list IC50 recorded for the molecule Nc1ncc(N2CCN(c3cccc(OC4CCOC4)c3)CC2)c(N)n1 (centres unmarked)
1100

Please list IC50 recorded for the molecule C[C@@H]1CN(c2cnc(N)nc2N)CCN1c1cccc(C2CCOCC2)c1
107

Please list IC50 recorded for the molecule Nc1ncc(N2CCC(c3ccccc3)CC2)c(N)n1
4070

Provenance of the data: patent US20200270233A1
